Test: Therapeutic index, ratio of CC50 for human CEM-GFP cells to EC50 for HIV1 NL4.3
Type: cell-based
Conditions: read-out: Ratio CC50/EC50
Label rule met for high-side selectivity ratio (at or above 10) and rule not met for low-side selectivity ratio (below it).

Answer whether selectivity ratio of COc1ccc(C(=O)Nc2ccc(C(=O)/C=C/c3ccc(O)c(O)c3)cc2)cc1 is greater than or equal to 10. rule met

Answer whether selectivity ratio of O=C(/C=C/c1ccc(O)c(O)c1)c1ccc(NC(=O)C23C[C@H]4C[C@@H](C2)C[C@@H](C3)C4)cc1 is greater than or equal to 10. rule not met

Answer whether selectivity ratio of O=C(Cc1cccs1)Nc1ccc(C(=O)/C=C/c2ccc(O)c(O)c2)cc1 is greater than or equal to 10. rule met

Answer whether selectivity ratio of O=C(/C=C/c1ccc(O)c(O)c1)c1ccc(NC(=O)c2ccccc2)cc1 is greater than or equal to 10. rule met

----------
Experiment: Cytotoxicity against human CEM-GFP cells assessed as highest non cytotoxic concentration after 48 hrs by MTT assay
Assay type: cell-based, CCRF-CEM
Settings: read-out: MNCC
MEASURED_ENDPOINT: MNTC at 48 h (nM)
Response body: numeric value in nM, unit text excluded.

Input O=C(/C=C/c1ccc(O)c(O)c1)c1ccc(NC(=O)C23C[C@H]4C[C@@H](C2)C[C@@H](C3)C4)cc1 , output reported MNTC at 48 h. 6000

Input O=C(/C=C/c1ccc(O)c(O)c1)c1ccc(NC(=O)c2ccco2)cc1 , output reported MNTC at 48 h. 2900

Input O=C(/C=C/c1ccc(O)c(O)c1)c1ccc(NC(=O)c2ccc(C(F)(F)F)cc2F)cc1 , output reported MNTC at 48 h. 2200

Input Cc1cn([C@H]2C[C@H](N=[N+]=[N-])[C@@H](CO)O2)c(=O)[nH]c1=O [ZIDOVUDINE] , output reported MNTC at 48 h. 5000

Input O=C(/C=C/c1ccc(O)c(O)c1)c1ccc(NC(=O)c2ccc(F)c(F)c2)cc1 , output reported MNTC at 48 h. 2500

----------
Kindly supply the reported MNTC at 48 h values for the records listed here.
Experiment: Cytotoxicity against human CEM-GFP cells assessed as highest non cytotoxic concentration after 48 hrs by MTT assay
Format: cell-based, CCRF-CEM
Details: read-out: MNCC
Response body: numeric value in nM, unit text excluded.

Input CC(C)CC(=O)Nc1ccc(C(=O)/C=C/c2ccc(O)c(O)c2)cc1 , output reported MNTC at 48 h. 1400

Input COc1ccc(C(=O)Nc2ccc(C(=O)/C=C/c3ccc(O)c(O)c3)cc2)cc1 , output reported MNTC at 48 h. 6400

Input O=C(/C=C/c1ccc(O)c(O)c1)c1ccc(NC(=O)c2ccccc2)cc1 , output reported MNTC at 48 h. 2800

Input CC(C)C(=O)Nc1ccc(C(=O)/C=C/c2ccc(O)c(O)c2)cc1 , output reported MNTC at 48 h. 1500

Input O=C(/C=C/c1ccc(O)c(O)c1)c1ccc(NC(=O)c2cccs2)cc1 , output reported MNTC at 48 h. 2700

Input O=C(/C=C/c1ccc(O)c(O)c1)c1ccc(NC(=O)c2ccc3ccccc3c2)cc1 , output reported MNTC at 48 h. 2400

Input O=C(Cc1cccs1)Nc1ccc(C(=O)/C=C/c2ccc(O)c(O)c2)cc1 , output reported MNTC at 48 h. 2600

Input O=C(/C=C/c1ccc(O)c(O)c1)c1ccc(NC(=O)c2ccc(F)cc2F)cc1 , output reported MNTC at 48 h. 6300

Input CC(=O)Nc1ccc(C(=O)/C=C/c2ccc(O)c(O)c2)cc1 , output reported MNTC at 48 h. 1700

Input Nc1ccc(C(=O)/C=C/c2ccc(O)c(O)c2)cc1 , output reported MNTC at 48 h. 3900

Hello, the source for this data is ChEMBL document CHEMBL1667804, in case you need it.
